# Test system: Ralstonia solanacearum
# Test: Antibacterial activity against Ralstonia solanacearum CGMCC 1.12711 measured after 12 to 14 hrs by double dilution method
# Type: functional
Attribute: log10(MIC)
Measured parameter: log10(MIC) (log10 of the value in µM)

{"Molecule": "FC(F)(F)c1ccc(C[n+]2ccc3c([nH]c4ccccc43)c2-c2ccccn2)cc1", "Measured parameter": "log10(MIC)", "Recorded number": 1.70}
{"Molecule": "COC(=O)c1ccc(-c2c3[nH]c4ccc(OC)cc4c3cc[n+]2Cc2ccc([N+](=O)[O-])cc2)cc1", "Measured parameter": "log10(MIC)", "Recorded number": 2.00}
{"Molecule": "COC(=O)c1ccc(-c2c3[nH]c4ccc(OC)cc4c3cc[n+]2Cc2ccccc2Br)cc1", "Measured parameter": "log10(MIC)", "Recorded number": 1.70}
{"Molecule": "COC(=O)c1ccc(-c2c3[nH]c4ccc(OC)cc4c3cc[n+]2Cc2ccc(F)cc2F)cc1", "Measured parameter": "log10(MIC)", "Recorded number": 2.00}
{"Molecule": "FC(F)(F)c1ccc(C[n+]2ccc3c([nH]c4ccccc43)c2-c2ccc3c(c2)OCO3)cc1", "Measured parameter": "log10(MIC)", "Recorded number": 1.40}
{"Molecule": "COC(=O)c1ccc(-c2c3[nH]c4ccc(OC)cc4c3cc[n+]2Cc2ccccc2)cc1", "Measured parameter": "log10(MIC)", "Recorded number": 2.00}
{"Molecule": "COc1ccc2[nH]c3c(-c4ccco4)[n+](Cc4ccc(C(F)(F)F)cc4)ccc3c2c1", "Measured parameter": "log10(MIC)", "Recorded number": 1.40}
{"Molecule": "Cc1ccc(C[n+]2ccc3c([nH]c4ccccc43)c2-c2ccco2)cc1", "Measured parameter": "log10(MIC)", "Recorded number": 1.40}
{"Molecule": "COC(=O)c1ccc(-c2c3[nH]c4ccc(OC)cc4c3cc[n+]2Cc2cccc(Br)c2)cc1", "Measured parameter": "log10(MIC)", "Recorded number": 1.40}
{"Molecule": "COc1ccc2[nH]c3c(-c4ccc5c(c4)OCO5)[n+](Cc4ccc(C(F)(F)F)cc4)ccc3c2c1.[Br-]", "Measured parameter": "log10(MIC)", "Recorded number": 1.40}
{"Molecule": "COC(=O)c1ccc(-c2c3[nH]c4ccccc4c3cc[n+]2Cc2ccc(C(F)(F)F)cc2)cc1", "Measured parameter": "log10(MIC)", "Recorded number": 1.70}
{"Molecule": "COc1ccc2[nH]c3c(-c4ccccn4)[n+](Cc4ccc(C(F)(F)F)cc4)ccc3c2c1", "Measured parameter": "log10(MIC)", "Recorded number": 2.00}
{"Molecule": "c1ccc(C[n+]2ccc3c([nH]c4ccccc43)c2-c2ccc3c(c2)OCO3)cc1", "Measured parameter": "log10(MIC)", "Recorded number": 2.00}
{"Molecule": "COC(=O)c1ccc(-c2c3[nH]c4ccc(OC)cc4c3cc[n+]2Cc2ccc(F)cc2)cc1", "Measured parameter": "log10(MIC)", "Recorded number": 2.18}
{"Molecule": "COC(=O)c1ccc(-c2c3[nH]c4ccccc4c3cc[n+]2Cc2ccccc2)cc1", "Measured parameter": "log10(MIC)", "Recorded number": 2.00}
{"Molecule": "COc1ccc2[nH]c3c(-c4ccccn4)[n+](Cc4ccc(C)cc4)ccc3c2c1", "Measured parameter": "log10(MIC)", "Recorded number": 2.00}
{"Molecule": "c1ccc(C[n+]2ccc3c([nH]c4ccccc43)c2-c2ccco2)cc1", "Measured parameter": "log10(MIC)", "Recorded number": 2.00}
{"Molecule": "COC(=O)c1ccc(-c2c3[nH]c4ccc(OC)cc4c3cc[n+]2Cc2ccccc2F)cc1", "Measured parameter": "log10(MIC)", "Recorded number": 2.18}
{"Molecule": "FC(F)(F)c1ccc(C[n+]2ccc3c([nH]c4ccccc43)c2-c2ccco2)cc1", "Measured parameter": "log10(MIC)", "Recorded number": 1.40}
{"Molecule": "COC(=O)c1ccc(-c2c3[nH]c4ccc(OC)cc4c3cc[n+]2Cc2ccc(C(F)(F)F)cc2)cc1", "Measured parameter": "log10(MIC)", "Recorded number": 1.40}
{"Molecule": "COc1ccc2[nH]c3c(-c4ccco4)[n+](Cc4ccc(C)cc4)ccc3c2c1", "Measured parameter": "log10(MIC)", "Recorded number": 1.40}
{"Molecule": "COc1ccc2[nH]c3c(-c4ccc5c(c4)OCO5)[n+](Cc4ccc(C)cc4)ccc3c2c1", "Measured parameter": "log10(MIC)", "Recorded number": 1.40}
{"Molecule": "COc1ccc2[nH]c3c(-c4ccc5c(c4)OCO5)[n+](Cc4ccccc4)ccc3c2c1", "Measured parameter": "log10(MIC)", "Recorded number": 1.70}
{"Molecule": "COC(=O)c1ccc(-c2c3[nH]c4ccc(OC)cc4c3cc[n+]2Cc2ccc(C)cc2)cc1", "Measured parameter": "log10(MIC)", "Recorded number": 1.70}
{"Molecule": "Cc1ccc(C[n+]2ccc3c([nH]c4ccccc43)c2-c2ccc3c(c2)OCO3)cc1", "Measured parameter": "log10(MIC)", "Recorded number": 1.70}
{"Molecule": "Cc1ccc(C[n+]2ccc3c([nH]c4ccccc43)c2-c2ccccn2)cc1", "Measured parameter": "log10(MIC)", "Recorded number": 1.70}
{"Molecule": "COC(=O)c1ccc(-c2c3[nH]c4ccccc4c3cc[n+]2Cc2ccc(C)cc2)cc1", "Measured parameter": "log10(MIC)", "Recorded number": 1.70}
{"Molecule": "COC(=O)c1ccc(-c2c3[nH]c4ccc(OC)cc4c3cc[n+]2Cc2ccc(Br)cc2)cc1", "Measured parameter": "log10(MIC)", "Recorded number": 1.40}
{"Molecule": "CC1(C)S[C@@H]2[C@H](NC(=O)[C@H](N)c3ccccc3)C(=O)N2[C@H]1C(=O)[O-].[Na+] [AMPICILLIN SODIUM]", "Measured parameter": "log10(MIC)", "Recorded number": 0.49}
{"Molecule": "COC(=O)c1ccc(-c2c3[nH]c4ccc(OC)cc4c3cc[n+]2Cc2cccc(F)c2)cc1", "Measured parameter": "log10(MIC)", "Recorded number": 2.18}

* * *

# Test: Cytotoxicity against human L02 cells assessed as cell viability at 8 ug/ml by MTT assay
# Format: cell-based
# Measurement conditions: read-out: Activity

{"Structure string": "COc1ccc2[nH]c3c(-c4ccco4)[n+](Cc4ccc(C(F)(F)F)cc4)ccc3c2c1", "viability at 8 ug/ml (%)": 74.3}
{"Structure string": "COc1ccc2[nH]c3c(-c4ccc5c(c4)OCO5)[n+](Cc4ccc(C(F)(F)F)cc4)ccc3c2c1.[Br-]", "viability at 8 ug/ml (%)": 84.6}
{"Structure string": "FC(F)(F)c1ccc(C[n+]2ccc3c([nH]c4ccccc43)c2-c2ccc3c(c2)OCO3)cc1", "viability at 8 ug/ml (%)": 85.7}
{"Structure string": "COC(=O)c1ccc(-c2c3[nH]c4ccc(OC)cc4c3cc[n+]2Cc2ccc(C(F)(F)F)cc2)cc1", "viability at 8 ug/ml (%)": 71.6}
{"Structure string": "FC(F)(F)c1ccc(C[n+]2ccc3c([nH]c4ccccc43)c2-c2ccco2)cc1", "viability at 8 ug/ml (%)": 76.2}
{"Structure string": "COC(=O)c1ccc(-c2c3[nH]c4ccc(OC)cc4c3cc[n+]2Cc2ccc(Br)cc2)cc1", "viability at 8 ug/ml (%)": 73.5}
{"Structure string": "COc1ccc2[nH]c3c(-c4ccc5c(c4)OCO5)[n+](Cc4ccc(C)cc4)ccc3c2c1", "viability at 8 ug/ml (%)": 82.2}

* * *

# Test: Cytotoxicity against […] MARC145 cells assessed as cell viability at 8 ug/ml by MTT assay
# Assay type: cell-based
# Measurement conditions: chlorocebus aethiops, read-out: Activity
Listed here: items and their measured viability at 8 ug/ml.

{"Structure string": "COc1ccc2[nH]c3c(-c4ccc5c(c4)OCO5)[n+](Cc4ccc(C(F)(F)F)cc4)ccc3c2c1.[Br-]", "Measurement units": "%", "viability at 8 ug/ml": 103}
{"Structure string": "COc1ccc2[nH]c3c(-c4ccco4)[n+](Cc4ccc(C(F)(F)F)cc4)ccc3c2c1", "Measurement units": "%", "viability at 8 ug/ml": 88.5}
{"Structure string": "COC(=O)c1ccc(-c2c3[nH]c4ccc(OC)cc4c3cc[n+]2Cc2ccc(C(F)(F)F)cc2)cc1", "Measurement units": "%", "viability at 8 ug/ml": 93.2}
{"Structure string": "COC(=O)c1ccc(-c2c3[nH]c4ccc(OC)cc4c3cc[n+]2Cc2ccc(Br)cc2)cc1", "Measurement units": "%", "viability at 8 ug/ml": 94.8}
{"Structure string": "FC(F)(F)c1ccc(C[n+]2ccc3c([nH]c4ccccc43)c2-c2ccco2)cc1", "Measurement units": "%", "viability at 8 ug/ml": 87.1}
{"Structure string": "COc1ccc2[nH]c3c(-c4ccc5c(c4)OCO5)[n+](Cc4ccc(C)cc4)ccc3c2c1", "Measurement units": "%", "viability at 8 ug/ml": 98.5}
{"Structure string": "FC(F)(F)c1ccc(C[n+]2ccc3c([nH]c4ccccc43)c2-c2ccc3c(c2)OCO3)cc1", "Measurement units": "%", "viability at 8 ug/ml": 96.3}
